Parameter pKd: see the listing below.
# Target desc: UniProt Q9H2J4
# Sequence (Q9H2J4 whole entry): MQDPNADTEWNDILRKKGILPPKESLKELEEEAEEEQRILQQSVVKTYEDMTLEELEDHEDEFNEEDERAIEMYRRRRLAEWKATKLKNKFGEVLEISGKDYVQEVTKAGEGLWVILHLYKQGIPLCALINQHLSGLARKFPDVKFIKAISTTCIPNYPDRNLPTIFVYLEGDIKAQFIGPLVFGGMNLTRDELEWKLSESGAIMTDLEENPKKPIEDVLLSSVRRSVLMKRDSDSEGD
pKd: −log10 of the molar value.

CCOC(=O)C(CC)n1cnc2sc3c(c2c1=O)CCCC3 (stereo not given) [BI-86-E8] = < 3.00

Measured on UniProt Q9H2J4, CC(C)COC(=O)Cn1cnc2sc3c(c2c1=O)CCCC3 [BI-86-E11] has a documented pKd of < 3.00

Given the compound O=c1[nH]nnc2sc3c(c12)CCCC3 [BI-86-F3] and test system UniProt Q9H2J4, the measured pKd is < 3.00

Item: `CCOC(=O)Cn1cnc2sc3c(c2c1=O)CCC3` | System: UniProt Q9H2J4 | pKd: 3.64

# O=C(Cn1cnc2sc3c(c2c1=O)CCCC3)OCc1ccccc1 [BI-86-F2] with UniProt Q9H2J4: pKd is < 3.00

# credit: BindingDB's records for doi:10.1111/j.1747-0285.2008.00719.x
